# assayed_system: dGA (Homo sapiens, UniProt P10636)
# Sequence (P10636 614-707): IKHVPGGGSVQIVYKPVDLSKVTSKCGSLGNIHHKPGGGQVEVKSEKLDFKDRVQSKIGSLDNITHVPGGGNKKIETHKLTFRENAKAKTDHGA
# protocol_notes: Biacore X100 SPR binding kinetics of anti-tau scAbs (scAb captured via HuCk), analyte dGA
# assay_setup: lead scAbs, Table 24
measured_quantity: ka (M⁻¹ s⁻¹)
// return numeric value only (unit: M⁻¹ s⁻¹, not printed)

| molecule | measured_quantity | recorded_result |
| --- | --- | --- |
| S1E12: anti-tau clone, SEQ ID NO: 218 (protein, S1E12 amino acid sequence) scFv: QVQLQESGPSLVKPSQTLSLTCTVSGFSLGSNSVGWVRQAPGKAPEWVAGIDTDGEEGYNPALNSRLSITRDTSKSQVSLSLSSVTSEDTAVYYCGRSYRADGLAYGYVQAIDYWGPGLLVTVSSEGKSSGASGESKVDDRVVRTQPSSVSGSLGQRVSITCSGSFIGISSVGWFQQLPGSGLRTIIVASDGRPSGVPDRFSMSKSGNTATLTISSLQAEDEADYFCGSSDRTQYTGVFGSGTRLTVLG | ka | 2.99e+06 |

Lab note: next molecule to report on.
Given S1G2: anti-tau binding molecule defined by its CDRs; scAb sequence SEQ ID NO: 81 (protein, S1G2 amino acid sequence) scFv: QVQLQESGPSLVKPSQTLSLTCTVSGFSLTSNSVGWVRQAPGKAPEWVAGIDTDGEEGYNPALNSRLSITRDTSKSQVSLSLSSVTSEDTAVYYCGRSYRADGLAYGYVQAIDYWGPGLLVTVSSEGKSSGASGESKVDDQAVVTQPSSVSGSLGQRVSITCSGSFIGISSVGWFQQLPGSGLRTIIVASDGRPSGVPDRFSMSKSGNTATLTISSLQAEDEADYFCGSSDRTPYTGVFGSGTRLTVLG , respond with its ka.
783000
